experiment: Rodent pharmacokinetic study; type: in vivo, Male wistar rats; conditions: plasma; Wistar/Male rat, 10 mg/kg, water, Intravenous
Measured half-life of individual entries
Experimental Endpoint: half-life

CCN1CCN(Cc2cc(S(=O)(=O)n3ccc4ccccc43)ccc2C)CC1.Cl.Cl ... 6.25 h
Cc1cn(S(=O)(=O)c2ccc(Cl)c(CN3CCN(C)CC3)c2)c2ccccc12.Cl.Cl ... 5.84 h
Cc1ccc(S(=O)(=O)n2ccc3ccccc32)cc1CN1CCN(C)CC1.Cl.Cl ... 2.69 h

* * *

biological target: Human 5-HT6 receptor (Homo sapiens); construct: expressed in transfected cells; host or cells: HEK293; experiment: Binding assay for human 5-HT6 receptor ([3H] LSD radioligand); conditions: 100 nM test compound; [3H] LSD 1.5 nM; human recombinant receptor in HEK293 cells; read-out: % Inhibition of specific binding at 100 nM
Sequence (P50406 whole entry): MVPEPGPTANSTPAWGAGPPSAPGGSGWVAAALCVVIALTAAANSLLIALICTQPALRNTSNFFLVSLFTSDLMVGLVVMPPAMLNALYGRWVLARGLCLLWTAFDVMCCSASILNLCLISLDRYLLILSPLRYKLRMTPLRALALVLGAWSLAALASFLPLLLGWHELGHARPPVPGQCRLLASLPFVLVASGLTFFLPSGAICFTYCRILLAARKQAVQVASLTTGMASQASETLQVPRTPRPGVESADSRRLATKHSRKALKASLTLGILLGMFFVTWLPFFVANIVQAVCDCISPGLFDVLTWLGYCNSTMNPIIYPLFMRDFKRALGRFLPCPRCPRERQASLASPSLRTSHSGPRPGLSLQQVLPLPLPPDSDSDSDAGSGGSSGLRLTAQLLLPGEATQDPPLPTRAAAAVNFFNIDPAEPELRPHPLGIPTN
Where a name gives a salt, the structure may show the parent alone.
Experimental Endpoint: inhibition at 0.1 µM (%)

CCN1CCN(Cc2cc(S(=O)(=O)n3ccc4cc(Br)ccc43)ccc2Br)CC1.Cl.Cl [Example 37, dihydrochloride] ... 55.9
CCN1CCN(Cc2cc(S(=O)(=O)n3ccc4cc(OC)ccc43)ccc2Br)CC1 ... 50.5
CCN1CCN(Cc2cc(S(=O)(=O)n3cc(C)c4ccccc43)ccc2Br)CC1.Cl.Cl [Example 39, dihydrochloride] ... 91.5
CN1CCN(Cc2cc(S(=O)(=O)n3ccc4ccccc43)ccc2Br)CC1.Cl.Cl [Example 21, dihydrochloride] ... 88.8
CCN1CCCN(Cc2cc(S(=O)(=O)n3cc(C)c4ccccc43)ccc2Cl)CC1 [Example 45, dihydrochloride] ... 98.5
Cc1cn(S(=O)(=O)c2ccc(Cl)c(CN3CCCN(C)CC3)c2)c2ccccc12 [Example 46, dihydrochloride] ... 92.2
CCN1CCN(Cc2cc(S(=O)(=O)n3ccc4cc(Br)ccc43)ccc2Cl)CC1.Cl.Cl [Example 29, dihydrochloride] ... 71.8

* * *

tested on: rats; test: Water maze, scopolamine induced reversal; type: in vivo
Experimental Endpoint: Scopolamine Induced Reversal

CCN1CCN(Cc2cc(S(=O)(=O)n3ccc4ccccc43)ccc2C)CC1.Cl.Cl ... ≧30 mg/kg, p.o
CN1CCN(Cc2cccc(S(=O)(=O)n3ccc4ccccc43)c2)CC1 ... ≧30 mg/kg, p.o
Cc1cn(S(=O)(=O)c2ccc(Cl)c(CN3CCN(C)CC3)c2)c2ccccc12.Cl.Cl ... >30 mg/kg, p.o
Cc1ccc(S(=O)(=O)n2ccc3ccccc32)cc1CN1CCN(C)CC1.Cl.Cl ... >30 mg/kg, p.o

* * *

The entries below come with measured half-life values attached.
Test: Rodent pharmacokinetic study
Assay type: in vivo, Male wistar rats
Settings: plasma; Wistar/Male rat, 10 mg/kg, water, Oral
Experimental: Rodent Pharmacokinetic Study Male wistar rats (230-280 grams) obtained from NIN (National Institute of Nutrition, Hyderabad, India) were used as an experimental animal. Three to five animals were housed in each cage. […] The concentrations of the NCE compound in plasma were determined using LC-MS/MS method. […] The NCE compounds were quantified in plasma by validated LC-MS/MS method using solid phase extraction technique. NCE compounds were quantified in the calibration range of 2-2000 ng/mL in plasma. […]
Experimental Endpoint: half-life (h)

CCN1CCN(Cc2cc(S(=O)(=O)n3ccc4ccccc43)ccc2C)CC1.Cl.Cl ... 3.18
Cc1ccc(S(=O)(=O)n2ccc3ccccc32)cc1CN1CCN(C)CC1.Cl.Cl ... 7.85
Cc1cn(S(=O)(=O)c2ccc(Cl)c(CN3CCN(C)CC3)c2)c2ccccc12.Cl.Cl ... 1.73

Just for reference, patent US8318725B2 is where these values come from.
